Test system: LXRa:RXRa (NR concentration 270 nM, RXRa partner concentration 90 nM)
assay: PBM binding z-score (relative to random genomic background probes); higher = stronger binding; sequences stand for … in GC…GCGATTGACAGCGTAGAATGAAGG
In this section we review reported PBM binding z-score values for a set of sequences.
Give your answer as a number; write no unit.

INSERT INTO measurements (biosequence, value_measured) VALUES
  ('CAAACTAGGTCACCGGAATGTCAAAGTCCGCATG', 3.52),
  ('TCGAGTATGTTAGTCGGGGCATTCAGCCAACATA', -0.354),
  ('AATACAGGGTCACTAGGCAAGAGTAGGTACGAAT', 4.96),
  ('CGTCAAAGTTGAACTAAGGTAACGTAAAGCACGC', 3.29),
  ('ACTAGATGGTCAGCTGAGGTCACACACAATTCGG', 3.89);

Item GCTAGTTCGTCAGTAAAAGGTCACACACCGGTCG has what recorded PBM binding z-score? 4.47

###

Tested on: LXRa:RXRa (NR concentration 270 nM, RXRa partner concentration 90 nM)
assay: PBM binding z-score (relative to random genomic background probes); higher = stronger binding; sequences stand for … in GC…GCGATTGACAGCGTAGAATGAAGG
property: PBM binding z-score

INSERT INTO results (biosequence, property, value_measured) VALUES
  ('TCTTGTAGATCAATAGACGTTAAGAAAGTGCGCT', 'PBM binding z-score', 0.28),
  ('CGAACTAGGTCAGAACAGGACTGTGAAGGATGAT', 'PBM binding z-score', 0.692),
  ('CCTACTTGGCCAAAGGTCATTGATTCCAATGCTC', 'PBM binding z-score', 5.24);

Item AGTCAAAGTTCACTAGGTAACGAAAGATTCAGCT has what recorded PBM binding z-score? 5.15

Item ATATGTAGGTTACTTCCGGGTCATTCAGGCTATG has what recorded PBM binding z-score? 5.79

Item CGTCCAAGGTCAGCAGGTCAATGAAAGCGACGTG has what recorded PBM binding z-score? 4.32

Item TCATATAGGTAAAAGGTGAAAGACGGTGTGGTAA has what recorded PBM binding z-score? 2.03

Item TGTCGGAGGACACGAAGGTCAGAGCTTTCCAGAG has what recorded PBM binding z-score? 1.44

Item CCTGCTAGGTCAATGGTCCGCTAAAGCAGCTCGC has what recorded PBM binding z-score? 2.19

Item TCTGCTAGGTCAACGATGGTCATCTAATCTGCTA has what recorded PBM binding z-score? 3.34

Item CTTACTGGGCCATCAGGTCATTGATATCAACGTT has what recorded PBM binding z-score? 1.35

Item CCTAGTTGGTCAGGACGTCACACACCGGATATGA has what recorded PBM binding z-score? 0.0885

Item CCGACTGGGGCAGAAAGGTTACCGTACCATCCGG has what recorded PBM binding z-score? 0.695

###

Test system: PXR homodimer (NR concentration 270 nM)
assay: PBM binding z-score (relative to random genomic background probes); higher = stronger binding; sequences stand for … in GC…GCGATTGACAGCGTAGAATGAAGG
In this section we review reported PBM binding z-score values for a set of sequences.
Give your answer as a number; write no unit.

INSERT INTO measurements (biosequence, property, value_measured) VALUES
  ('ACTATTAGTTGGGACGAGGGCAACCGATAGGTTG', 'PBM binding z-score', 0.579);

Item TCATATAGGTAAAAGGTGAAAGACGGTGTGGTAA has what recorded PBM binding z-score? 0.734

Item AGATGTAGGTTAGCTGGGGTCATTCAGACTAGGC has what recorded PBM binding z-score? 3.97

Item CCGGCTGGGGCAAGGTTACCATAACGCACAGCCA has what recorded PBM binding z-score? -0.654

Item ACAGGCAGGTGAGTGAAGGTAACTCAGCTGGACG has what recorded PBM binding z-score? -0.354

###

System: THRa:RXRa (NR concentration 90 nM, RXRa partner concentration 90 nM)
assay: PBM binding z-score (relative to random genomic background probes); higher = stronger binding; sequences stand for … in GC…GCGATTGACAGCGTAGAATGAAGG
In this section we review reported PBM binding z-score values for a set of sequences.
Give your answer as a number; write no unit.

INSERT INTO assay_data (biosequence, value_measured) VALUES
  ('TCTATCAGTTGATTAGGGCAACCGAAACAGCGGA', 0.643),
  ('TCTGCTAGGTCAGTTGGTCAGCTCACGAGCTGCC', 1.38);

Item ATCGAAAGGTCGACGAGGTGAGTAGACACCGTTT has what recorded PBM binding z-score? 3.85

Item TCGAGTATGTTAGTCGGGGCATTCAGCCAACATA has what recorded PBM binding z-score? 0.102

Item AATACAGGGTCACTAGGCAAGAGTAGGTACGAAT has what recorded PBM binding z-score? 3.48

Item CGTTCAAGGTCAGCAGGTCAGTGAAAGCGACGTG has what recorded PBM binding z-score? 4.18

###

System: PPARg DBDmut:RXRa IVT, anti-PPARg (DBD mutation: PPARg1 K132A/R137A, NR concentration 270 nM, RXRa partner concentration 90 nM)
assay: PBM binding z-score (relative to random genomic background probes); higher = stronger binding; sequences stand for … in GC…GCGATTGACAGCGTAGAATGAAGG
In this section we review reported PBM binding z-score values for a set of sequences.
Give your answer as a number; write no unit.

INSERT INTO results (biosequence, property, value_measured) VALUES
  ('CTCGAAAGGTCGGTTTAGGTGAGTATACGGATAA', 'PBM binding z-score', 0.666);

Item TCATATAGGTAACGGTGAAAGTCGAACGATATGA has what recorded PBM binding z-score? 1.45

Item AGAATGAGCTTACCAAAGATCAGGGAAACGCTTG has what recorded PBM binding z-score? -0.258

Item CGTCCAAGGTCAATGCTAAGTCAGTGAAAGCATT has what recorded PBM binding z-score? 0.647

Item TCGAGTAGGTCACCAATGGGGCATTCAGCTTTCT has what recorded PBM binding z-score? 0.462

###

Test system: PXR homodimer (NR concentration 270 nM)
assay: PBM binding z-score (relative to random genomic background probes); higher = stronger binding; sequences stand for … in GC…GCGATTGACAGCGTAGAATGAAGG
property: PBM binding z-score
Give your answer as a number; write no unit.

Solved cases (5 shown):
INSERT INTO assay_data (biosequence, property, value_measured) VALUES
  ('GATACAGCGTCAGCTAGAGGCCAGAGTATGGAAA', 'PBM binding z-score', -0.376),
  ('GCGACTGGGGCAAAGCAGGTTACCAGAAGGTTGG', 'PBM binding z-score', -0.469),
  ('GGAACGAGGGCATAGTTGATAGCATCTGTCGACG', 'PBM binding z-score', -0.0429),
  ('GCTTGGAGGACAAGGTCAGAGCTTTGTCCGTAGA', 'PBM binding z-score', -0.385),
  ('CGTCCAAGGTCAGAGAGGTCAGTAAATGCCGAGT', 'PBM binding z-score', 12);

Notebook: pull reported PBM binding z-score for PXR homodimer (NR concentration 270 nM), entry GCTGCTAGGTCAGGTTGGTCAGCTACCGGGTACG -0.331

Notebook: pull reported PBM binding z-score for PXR homodimer (NR concentration 270 nM), entry TATACAGAGTCAAAGGCCAGAGTACGAATGTCGA 0.152

Notebook: pull reported PBM binding z-score for PXR homodimer (NR concentration 270 nM), entry TCTTGTAGATCATGCAGGTTAAGAAAGCCTGAGT 0.527

Notebook: pull reported PBM binding z-score for PXR homodimer (NR concentration 270 nM), entry TAGCCTAGGTCGTGGGCCAGTATACCACGCGAAC -0.949

Notebook: pull reported PBM binding z-score for PXR homodimer (NR concentration 270 nM), entry CGAACTAGGTCAGAACAGGACAGCGAAGGATGAT -0.18

Notebook: pull reported PBM binding z-score for PXR homodimer (NR concentration 270 nM), entry AGAATGAGGTTATACGTAGCTCAGGGAAGAAAGT 0.0212

Notebook: pull reported PBM binding z-score for PXR homodimer (NR concentration 270 nM), entry TCTTGTAGATCAATATAGGTTAAGAAAGTGCGCT 0.304

Notebook: pull reported PBM binding z-score for PXR homodimer (NR concentration 270 nM), entry CCTACTGGGCTACGAAAGGTCATTGATTCAGTGA 1.74

Notebook: pull reported PBM binding z-score for PXR homodimer (NR concentration 270 nM), entry CCTATTAGTTGACCAAAAGGGCAACCGAAGCTCG 0.687

Notebook: pull reported PBM binding z-score for PXR homodimer (NR concentration 270 nM), entry CTCGAAATGTCGTGCTCAGGTGAGTATACCAAAC -0.0833

Notebook: pull reported PBM binding z-score for PXR homodimer (NR concentration 270 nM), entry ACTTACGGGTCAACGATGTTATAGCACGCGTATA 0.444

Notebook: pull reported PBM binding z-score for PXR homodimer (NR concentration 270 nM), entry TCAGACCGGTGAAGGTAACTCAGGTACGCAGTCG -0.147

Notebook: pull reported PBM binding z-score for PXR homodimer (NR concentration 270 nM), entry GCTAGCAGGCCATTTGGGTCACTCTATGACGGGC -0.0419

Notebook: pull reported PBM binding z-score for PXR homodimer (NR concentration 270 nM), entry CGAACTAGGTCATACAGGACAGTGAATACATTGA 0.551

Notebook: pull reported PBM binding z-score for PXR homodimer (NR concentration 270 nM), entry CAGCCTAGGTCAGGGCAAGTATAGGAGGAACGTT -0.274

Notebook: pull reported PBM binding z-score for PXR homodimer (NR concentration 270 nM), entry CGTCCAAGGTCAATGCTAGGTCCGTGAAAGCATT 0.579

Notebook: pull reported PBM binding z-score for PXR homodimer (NR concentration 270 nM), entry ATCGAAAGGTCGTGAGGTGATTATACAGAAAGGC 0.165
